B1: APBB1IP (parent)
chain: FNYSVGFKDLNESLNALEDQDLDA

Variants of: B1
method_notes: protein stability index of a GFP-peptide fusion (GPS, HEK-293T) (PSI 1-6); higher = more stable;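 also: lentivirally expressed fusions sorted by FACS into six bins by GFP to DsRed ratio, PSI derived from sequencing read proportions per bin multiplied by bin number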
measurement_parameters: c terminus: a fixed tail appended
If the reported protein stability index equals or exceeds 4, assign True. If not, assign False.

Ask: Does the reported protein stability index for D23N fall at or above the 4 mark?
Result: True
